Hello, the source for this data is patent EP2058306A1, in case you need it.

# targetUnderTest: 5-HT1A (Sus scrofa, UniProt A0A4X1UTF5)
# Construct: membrane preparations from porcine cortex; from tissue; host or cells: porcine cortex
# Sequence (A0A4X1UTF5 1-422): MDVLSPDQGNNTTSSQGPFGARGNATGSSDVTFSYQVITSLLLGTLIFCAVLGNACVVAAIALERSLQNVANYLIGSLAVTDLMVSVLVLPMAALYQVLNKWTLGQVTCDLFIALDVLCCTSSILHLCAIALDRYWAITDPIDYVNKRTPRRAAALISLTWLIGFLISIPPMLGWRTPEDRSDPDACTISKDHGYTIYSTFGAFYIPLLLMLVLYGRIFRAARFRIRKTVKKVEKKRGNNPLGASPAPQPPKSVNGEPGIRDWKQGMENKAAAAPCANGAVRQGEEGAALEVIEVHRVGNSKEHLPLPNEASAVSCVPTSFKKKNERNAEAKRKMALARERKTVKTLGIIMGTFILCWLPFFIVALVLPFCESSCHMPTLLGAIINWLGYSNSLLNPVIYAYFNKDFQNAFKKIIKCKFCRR
# protocolText: radioligand binding assay, serotonin 5-HT1A receptor, [3H]WAY 100635
# protocolConditions: read-out: Ki 5-HT1a, porcine cortex membranes, mean of two to five experiments in triplicate
experimentalEndpoint: Ki

Give 5-HT1A (Sus scrofa, UniProt A0A4X1UTF5) Ki for "Cc1ccc(CNCC2(F)CCN(C(=O)c3coc4ccccc34)CC2)nc1"
< 50 nM

====

Please go through the items and note down their Ki.
# targetUnderTest: human D4.4 (Homo sapiens)
# Sequence (P21917 1-419): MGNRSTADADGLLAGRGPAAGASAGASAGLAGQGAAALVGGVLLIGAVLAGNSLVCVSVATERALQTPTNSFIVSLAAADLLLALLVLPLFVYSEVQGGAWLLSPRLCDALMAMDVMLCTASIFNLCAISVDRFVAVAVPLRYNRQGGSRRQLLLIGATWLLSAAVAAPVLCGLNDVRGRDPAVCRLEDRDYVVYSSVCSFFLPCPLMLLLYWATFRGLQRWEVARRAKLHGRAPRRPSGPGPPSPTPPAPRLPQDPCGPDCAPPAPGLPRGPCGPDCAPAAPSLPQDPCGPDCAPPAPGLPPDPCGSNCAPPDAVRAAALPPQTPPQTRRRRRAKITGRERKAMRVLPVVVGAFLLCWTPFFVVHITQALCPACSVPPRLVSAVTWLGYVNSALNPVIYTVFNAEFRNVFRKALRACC
# protocolText: radioligand binding assay, dopamine D4.4 receptor, [3H]spiperone
# protocolConditions: CHO cell membranes, mean of two to five experiments in triplicate, read-out: Ki D4.4

Give human D4.4 (Homo sapiens) Ki for Cc1ccc(CNCC2(F)CCN(C(=O)c3sccc3-n3cccc3)CC2)nc1 [Example E17]
0.501 to 5 µM

Give human D4.4 (Homo sapiens) Ki for Cc1ccc(CNCC2(F)CCN(C(=O)c3ccc(Br)s3)CC2)nc1 [Example E7]
0.501 to 5 µM

Give human D4.4 (Homo sapiens) Ki for Cc1ccc(CNCC2(F)CCN(C(=O)c3ccc(Cl)s3)CC2)nc1 [Example E4]
0.501 to 5 µM

Give human D4.4 (Homo sapiens) Ki for Cc1ccc(CNCC2(F)CCN(C(=O)c3ccc(-c4cccs4)s3)CC2)nc1 [Example E15]
> 5 µM

Give human D4.4 (Homo sapiens) Ki for Cc1ccc(CNCC2(F)CCN(C(=O)c3cc4ccccn4n3)CC2)nc1 [Example E42]
> 5 µM

Give human D4.4 (Homo sapiens) Ki for CSc1ccc(C(=O)N2CCC(F)(CNCc3ccc(C)cn3)CC2)s1 [Example E12]
0.501 to 5 µM

Give human D4.4 (Homo sapiens) Ki for Cc1ccc(CNCC2(F)CCN(C(=O)c3cc4ccsc4s3)CC2)nc1 [Example E27]
0.05 to 0.5 µM

Give human D4.4 (Homo sapiens) Ki for Cc1ccc(CNCC2(F)CCN(C(=O)c3coc(Br)c3)CC2)nc1 [Example E34]
0.501 to 5 µM

Give human D4.4 (Homo sapiens) Ki for Cc1ccc(CNCC2(F)CCN(C(=O)c3cc(Br)cs3)CC2)nc1 [Example E6]
0.501 to 5 µM

Give human D4.4 (Homo sapiens) Ki for Cc1ccc(CNCC2(F)CCN(C(=O)c3cccs3)CC2)nc1 [Example E1]
> 5 µM

Give human D4.4 (Homo sapiens) Ki for Cc1ccc(CNCC2(F)CCN(C(=O)c3cnn4ccccc34)CC2)nc1 [Example E43]
> 5 µM

Give human D4.4 (Homo sapiens) Ki for Cc1ccc(CNCC2(F)CCN(C(=O)c3cc4ccccc4s3)CC2)nc1 [Example E23]
0.501 to 5 µM

Give human D4.4 (Homo sapiens) Ki for Cc1ccc(CNCC2(F)CCN(C(=O)c3cc4cc(Br)ccc4s3)CC2)nc1 [Example E24]
0.501 to 5 µM

Give human D4.4 (Homo sapiens) Ki for Cc1ccc(CNCC2(F)CCN(C(=O)c3csc4ccccc34)CC2)nc1 [Example E25]
0.05 to 0.5 µM

Give human D4.4 (Homo sapiens) Ki for Cc1ccc(CNCC2(F)CCN(C(=O)c3sccc3Br)CC2)nc1 [Example E5]
0.501 to 5 µM

Give human D4.4 (Homo sapiens) Ki for Cc1ccc(CNCC2(F)CCN(C(=O)c3ccc(-c4csc(C)n4)s3)CC2)nc1 [Example E16]
> 5 µM

Give human D4.4 (Homo sapiens) Ki for Cc1ccc(CNCC2(F)CCN(C(=O)c3scc4c3CCCC4)CC2)nc1 [Example E29]
0.501 to 5 µM

Give human D4.4 (Homo sapiens) Ki for Cc1ccc(CNCC2(F)CCN(C(=O)c3ccc(C)s3)CC2)nc1 [Example E11]
0.501 to 5 µM
